# Tested on: Plasmodium berghei
# procedureSummary: Luciferase/luciferin-expressing antifolate-resistant parasites were used to infect a culture of HepG2 cells that were pre-incubated with compounds. Infected hepatocytes emit light due to the luciferase reaction. Assay results are presented as the percent inhibition of light emission compared to control. […]
# Assay type: functional
# conditionContext: sporozoite, HEPG2TOX_HILL_SLOPE 2.47, HEPG2TOX_R_SQUARED 0.965, PBLUC_HILL_SLOPE 13.6, PBLUC_R_SQUARED 0.0536, read-out: LUCIFERASE INFECTION ASSAY - IC50
quantityName: pIC50
Numbers only, as −log10 of the molar value.

# get_value(readout='pIC50', item= CC1=C(C#N)C(/C=N/N(C)c2ncc(C(F)(F)F)cc2Cl)CC(=O)N1 (stereo unspecified) )
5.49

* * *

# System: Plasmodium berghei
# procedureSummary: Luciferase/luciferin-expressing antifolate-resistant parasites were used to infect a culture of HepG2 cells that were pre-incubated with compounds. Infected hepatocytes emit light due to the luciferase reaction. Assay results are presented as the percent inhibition of light emission compared to control. […]
# Format: functional
# conditionContext: sporozoite, PBLUC_HILL_SLOPE 3.36, PBLUC_R_SQUARED 0.275, read-out: LUCIFERASE INFECTION ASSAY - IC50
quantityName: pIC50
Answers are plain numbers, as −log10 of the molar value.

# get_value(readout='pIC50', item= COCCn1c(C)cc(C(=O)CN2C(=O)NC(C)(c3ccc(C(C)(C)C)cc3)C2=O)c1C (stereo unspecified) )
5.21

* * *

# Tested on: Plasmodium berghei
# procedureSummary: Luciferase/luciferin-expressing antifolate-resistant parasites were used to infect a culture of HepG2 cells that were pre-incubated with compounds. Infected hepatocytes emit light due to the luciferase reaction. Assay results are presented as the percent inhibition of light emission compared to control. […]
# Format: functional
# conditionContext: sporozoite, PBLUC_HILL_SLOPE 2.84, PBLUC_R_SQUARED 0.665, read-out: LUCIFERASE INFECTION ASSAY - IC50
quantityName: IC50

# get_value(readout='IC50', item= CC(C)(C)C(=O)/C=c1\[nH]c(=O)/c(=C/c2cc(F)cc3c2OCOC3)s1 )
6.37 µM

* * *

# System: Plasmodium berghei
# procedureSummary: Luciferase/luciferin-expressing antifolate-resistant parasites were used to infect a culture of HepG2 cells that were pre-incubated with compounds. Infected hepatocytes emit light due to the luciferase reaction. Assay results are presented as the percent inhibition of light emission compared to control. […]
# Assay type: functional
# conditionContext: sporozoite, PBLUC_HILL_SLOPE 0.583, PBLUC_R_SQUARED 0.274, read-out: LUCIFERASE INFECTION ASSAY - IC50
pIC50: −log10 of the molar value.
quantityName: pIC50

Observed pIC50 on Plasmodium berghei for CCc1cccc2c(/C=C(/C(=O)NCc3ccccn3)c3nc4ccccc4[nH]3)c[nH]c12 , please.
< 5.00

* * *

# Test system: Plasmodium berghei
# procedureSummary: Luciferase/luciferin-expressing antifolate-resistant parasites were used to infect a culture of HepG2 cells that were pre-incubated with compounds. Infected hepatocytes emit light due to the luciferase reaction. Assay results are presented as the percent inhibition of light emission compared to control. […]
# Format: functional
# conditionContext: sporozoite, PBLUC_HILL_SLOPE 15.4, PBLUC_R_SQUARED 0.391, read-out: LUCIFERASE INFECTION ASSAY - IC50
quantityName: IC50 (µM)
Give bare numbers, in µM.

# get_value(readout='IC50', item= OC(COc1cccc(C(F)(F)F)c1)CN1CCN(c2nc(-c3ccccc3)ns2)CC1 (stereo unspecified) )
6.73

* * *

# Test system: Plasmodium berghei
# procedureSummary: Luciferase/luciferin-expressing antifolate-resistant parasites were used to infect a culture of HepG2 cells that were pre-incubated with compounds. Infected hepatocytes emit light due to the luciferase reaction. Assay results are presented as the percent inhibition of light emission compared to control. […]
# Assay type: functional
# conditionContext: sporozoite, HEPG2TOX_HILL_SLOPE 11.5, HEPG2TOX_R_SQUARED 0.854, PBLUC_HILL_SLOPE 4.03, PBLUC_R_SQUARED 0.534, read-out: LUCIFERASE INFECTION ASSAY - IC50
quantityName: pIC50
Give bare numbers, as −log10 of the molar value.

# get_value(readout='pIC50', item= COC(=O)c1c(NC(=O)c2cccnc2)c2cc(NCc3ccco3)cnc2n1Cc1ccccc1 )
5.35

* * *

# Test system: Plasmodium berghei
# procedureSummary: Luciferase/luciferin-expressing antifolate-resistant parasites were used to infect a culture of HepG2 cells that were pre-incubated with compounds. Infected hepatocytes emit light due to the luciferase reaction. Assay results are presented as the percent inhibition of light emission compared to control. […]
# Type: functional
# conditionContext: sporozoite, FFLUC_HILL_SLOPE 13.8, FFLUC_R_SQUARED 0.177, HEPG2TOX_HILL_SLOPE 8.22, HEPG2TOX_R_SQUARED 0.725, read-out: LUCIFERASE INFECTION ASSAY - IC50
quantityName: IC50

# get_value(readout='IC50', item= CC(C)(C)c1cc(NC(=O)CSc2ccc(Cl)cc2)c(C(N)=O)s1 )
> 8.62 µM

* * *

# System: Plasmodium berghei
# procedureSummary: Luciferase/luciferin-expressing antifolate-resistant parasites were used to infect a culture of HepG2 cells that were pre-incubated with compounds. Infected hepatocytes emit light due to the luciferase reaction. Assay results are presented as the percent inhibition of light emission compared to control. […]
# Assay type: functional
# conditionContext: sporozoite, HEPG2TOX_HILL_SLOPE 0.517, HEPG2TOX_R_SQUARED 0.271, PBLUC_HILL_SLOPE 3.75, PBLUC_R_SQUARED 0.163, read-out: LUCIFERASE INFECTION ASSAY - IC50
quantityName: IC50
Reply with a number, then the unit it belongs to.

# get_value(readout='IC50', item= CC1(C)CC(=O)C/C(=N\Nc2nc(C(Cl)(Cl)Cl)nc3ccccc23)C1 )
9.3 µM

* * *

# System: Plasmodium berghei
# procedureSummary: Luciferase/luciferin-expressing antifolate-resistant parasites were used to infect a culture of HepG2 cells that were pre-incubated with compounds. Infected hepatocytes emit light due to the luciferase reaction. Assay results are presented as the percent inhibition of light emission compared to control. […]
# Assay type: functional
# conditionContext: sporozoite, PBLUC_HILL_SLOPE 2.25, PBLUC_R_SQUARED 0.588, read-out: LUCIFERASE INFECTION ASSAY - IC50
quantityName: IC50 (µM)
One number for each entry, in µM.

Observed IC50 on Plasmodium berghei for CCc1nc2ccccc2c(C(=O)OCC(=O)Nc2ccc(C#N)cc2)c1C , please.
4.96

* * *

# Tested on: Plasmodium berghei
# procedureSummary: Luciferase/luciferin-expressing antifolate-resistant parasites were used to infect a culture of HepG2 cells that were pre-incubated with compounds. Infected hepatocytes emit light due to the luciferase reaction. Assay results are presented as the percent inhibition of light emission compared to control. […]
# Type: functional
# conditionContext: sporozoite, HEPG2TOX_HILL_SLOPE 1.09, HEPG2TOX_R_SQUARED 0.945, PBLUC_HILL_SLOPE 1.73, PBLUC_R_SQUARED 0.845, read-out: LUCIFERASE INFECTION ASSAY - IC50
quantityName: IC50 (nM)
Numbers only, in nM.

Observed IC50 on Plasmodium berghei for Cn1ccc2cc(-c3cn4c(-c5cccc(Cl)c5)cnc4cn3)ccc21 , please.
804

* * *

# Tested on: Plasmodium berghei
# procedureSummary: Luciferase/luciferin-expressing antifolate-resistant parasites were used to infect a culture of HepG2 cells that were pre-incubated with compounds. Infected hepatocytes emit light due to the luciferase reaction. Assay results are presented as the percent inhibition of light emission compared to control. […]
# Format: functional
# conditionContext: sporozoite, read-out: LUCIFERASE INFECTION ASSAY - IC90
quantityName: IC90

molecule: N#Cc1ccc(C=C(C(=O)NCc2ccccc2)C(=O)NCc2ccccc2)cc1
testTarget: Plasmodium berghei
resultValue: > 10 µM

molecule: COc1cc(OC)cc(C(=O)NNC(=O)CCC(=O)c2ccc(Cl)s2)c1
testTarget: Plasmodium berghei
resultValue: > 10 µM

molecule: O=S(=O)(c1ccc(C2=NNC(=NC3CC3)SC2)cc1)N1CCCCC1
testTarget: Plasmodium berghei
resultValue: > 10 µM

molecule: Cn1c(=O)c(C2=NN(C(=O)c3cccs3)C(c3ccco3)C2)c(-c2ccccc2)c2cc(Cl)ccc21 (stereo not given)
testTarget: Plasmodium berghei
resultValue: > 10 µM

molecule: CCCn1c(=O)n(C)c(=O)c2c(SCc3cccc([N+](=O)[O-])c3)nc(CC(C)C)nc21
testTarget: Plasmodium berghei
resultValue: > 10 µM

Okay, here is my list. What is IC90 for each of these?
1. COc1ccc(C(C)NC(=O)CCCN2C(=O)c3ccccc3C2=O)cc1F (stereo not given)
2. Cc1cc(C)c(NC(=O)CN(C)C2CC(=O)N(C)C2=O)c(C)c1 (stereo not given)
3. O=C1OC(CC(=O)c2csc3ccccc23)c2ccccc21 (stereo not given)
4. CC(OC(=O)C1CC1)C(=O)Nc1ccnn1C(C)C (stereo not given)

1: > 10 µM; 2: > 10 µM; 3: 8.63 µM; 4: > 10 µM

# get_value(readout='IC90', item= CC(C)(c1ccc(Oc2ccc(NC(=O)C3CC3(C)C)cc2)cc1)c1ccc(Oc2ccc(NC(=O)C3CC3(C)C)cc2)cc1 (stereo not given) )
> 5.47 µM
